src = PubChem BioAssay (NCI)

Please respond with reported GI50 for every item in the list.
- Tested on: OVCAR-3 ovarian
- protocol.description: NCI tumour cell line growth inhibition, 48 h

Query: Using the record for `O=C(Nc1ccc(Cl)c(C(F)(F)F)c1)Nc1ccc(-c2cccnc2)cc1N1CCC(CO)CC1` , state its measured GI50.
Result: 1.84 µM

Query: Using the record for `Cn1cnc([N+](=O)[O-])c1S(=O)(=O)Oc1ccc(Cl)cc1` , state its measured GI50.
Result: 1.86 µM

Query: Using the record for `O=C1CN=C(c2ccc[nH]2)c2cc(Cl)ccc2N1` , state its measured GI50.
Result: > 100 µM

Query: Using the record for COc1ccc(C2c3ccc4ccccc4c3Oc3ncn(CCCn4ccnc4)c(=N)c32)cc1OC (stereo not given) , state its measured GI50.
Result: 3.44 µM

Query: Using the record for CC[C@@]1(O)CC(OC2CC(N3CCOCC3)C(O)C(C)O2)c2c(O)c3c(c(O)c2[C@H]1O)C(=O)c1cccc(O)c1C3=O (stereo not given in full) , state its measured GI50.
Result: 0.176 µM
